Source of measurements: patent US20060160864A1

Reported melting point values follow for various compounds
quantity-kind: melting point

{"columns": ["compound", "data-value"],
 "data": [
  ["CCCCOCCOc1ccc(-c2ccc(N3CCC(C(=O)NC)C3)c(/C=C(\\C)C(=O)Nc3ccc([S@@+]([O-])Cc4cncn4CCC)cc3)c2)cc1 (stereo partly shown)", "127 to 128.5 °C"],
  ["CCCCOCCOc1ccc(-c2ccc(N3CCC(C(=O)O)C3)c(/C=C(\\C)C(=O)Nc3ccc([S@@+]([O-])Cc4cncn4CCC)cc3)c2)cc1 (stereo partly shown)", "184 to 186 °C"],
  ["CCCCOCCOc1ccc(-c2ccc(N3CCC4(C3)OCCO4)c(/C=C(\\C)C(=O)Nc3ccc([S@@+]([O-])Cc4cncn4CCC)cc3)c2)cc1", "139.5 to 140.5 °C"],
  ["CCCCOCCOc1ccc(-c2ccc(N3CCC(C(=O)N(C)C)C3)c(/C=C(\\C)C(=O)Nc3ccc([S@@+]([O-])Cc4cncn4CCC)cc3)c2)cc1 (stereo partly shown)", "151 to 152 °C"]
]}
